# study_target: T1, human CD19 (human, UniProt P15391 20-556)
# T1 sequence: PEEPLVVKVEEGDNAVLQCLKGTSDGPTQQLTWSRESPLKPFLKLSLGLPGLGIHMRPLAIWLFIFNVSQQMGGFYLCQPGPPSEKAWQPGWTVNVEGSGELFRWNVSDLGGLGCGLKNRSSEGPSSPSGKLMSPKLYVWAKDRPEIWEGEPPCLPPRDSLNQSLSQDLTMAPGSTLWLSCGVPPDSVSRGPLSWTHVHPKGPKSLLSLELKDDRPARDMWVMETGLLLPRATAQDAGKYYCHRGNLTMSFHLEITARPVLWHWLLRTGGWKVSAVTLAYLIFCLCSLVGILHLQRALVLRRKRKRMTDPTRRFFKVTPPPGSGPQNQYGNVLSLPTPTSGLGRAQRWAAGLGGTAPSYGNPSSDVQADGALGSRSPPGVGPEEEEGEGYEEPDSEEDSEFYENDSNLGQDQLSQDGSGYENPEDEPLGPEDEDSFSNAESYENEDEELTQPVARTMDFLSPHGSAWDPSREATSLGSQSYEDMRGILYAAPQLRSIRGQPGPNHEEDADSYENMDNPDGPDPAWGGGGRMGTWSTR
# experiment_notes: flow cytometry competition for binding with FMC63 (n = 3)
value_kind: pIC50
When answering, recall that pIC50 equals minus log10 of the concentration in mol/L, and write that number alone.

Some binders with recorded pIC50:
[[record]]
binder = "Clone 241 scFv (scFv, Human scFv) scFv: EVQLVQSGGGLVQPGRSLRLSCAASGFTFDDYAMHWVRQAPGKGLEWVSGISWNSGSIGYADSVKGRFTISRDNAKNSLYLQMNSLRAEDTAVYYCARDQGYHYYDSAEHAFDIWGQGTVVTVSSGGGGSGGGGSGGGGSAIRMTQSPSSLSASVGDRVTVTCQASQDISNYLNWYQQKPGRAPKLLIYDASNVKAGVPSRFSGGGSGTDFTLTISSLQPEDFATYYCQQSYSTPQAYTFGQGTKLDIK"
test_result = 7.84

[[record]]
binder = "Clone 18B scFv (scFv, Clone 18 with cysteine to serine at Kabat position 89 of VL; also called germline variant of clone 18) scFv: EVQLVESGGGLVQPGRSLRLSCAASGFTFDDYAMHWVRQAPGKGLEWVSGISWNSGRIGYADSVKGRFTISRDNAKNSLFLQMNSLRAEDTAVYYCARDQGYHYYDSAEHAFDIWGQGTVVTVSSGGGGSGGGGSGGGGSQSALTQPRSVSGFPGQSVTISCTGTTSDDVSWYQQHPGKAPQLMLYDVSKRPSGVPHRFSGSRSGRAASLIISGLQTEDEADYFCSSYAGRYNSVLFGGGTKLTVL"
test_result = 7.48

[[record]]
binder = "Clone 285 scFv (scFv, Human scFv) scFv: EVQLVESGGGLVQPGRSLRLSCAASGFTFDDYAMHWVRQAPGKGLEWVSGISWNSGRIGYADSVKGRFTISRDNAKNSLFLQMNSLRAEDTAVYYCARDQGYHYYDSAEHAFDIWGQGTVVTVSSGGGGSGGGGSGGGGSQSALTQPASVSGSPGQSITISCTGTSSDLGGYNYVSWYQHRPGKAPKLIIYDVTVRPSGVSDRFSGSKSGNTASLTISGLQAEDEADYYCGSYTSSSTLLWVFGGGTKLTVL"
test_result = 8.03


From here, focus on the item given below.
Query string: Identify measured pIC50 associated with Clone 192B scFv (scFv, Human scFv) scFv: QVQLVESGGGLVQPGRSLRLSCAASGFTFDDYAMHWVRQAPGKGLEWVSGISWNSGRIGYADSVKGRFTISRDNAKNSLFLQMNSLRAEDTAVYYCARDQGYHYYDSAEHAFDIWGQGTMVTVSSGGGGSGGGGSGGGGSQAVLTQPRSVSGSPGQSVTISCTGISSGVDSHRYVSWYQHHPGKAPKLMIYDFSKRPSGVPDRFSGSKSGNTASLTISGLQAEDEADYYCSSYAAISPNYVFGTGTKLTVL
Result string: 7.80
